assayed-system: Integrin alpha-IIb/beta-3 (Homo sapiens, UniProt P05106+P08514)
Sequence (P05106 27-788 limits assumed): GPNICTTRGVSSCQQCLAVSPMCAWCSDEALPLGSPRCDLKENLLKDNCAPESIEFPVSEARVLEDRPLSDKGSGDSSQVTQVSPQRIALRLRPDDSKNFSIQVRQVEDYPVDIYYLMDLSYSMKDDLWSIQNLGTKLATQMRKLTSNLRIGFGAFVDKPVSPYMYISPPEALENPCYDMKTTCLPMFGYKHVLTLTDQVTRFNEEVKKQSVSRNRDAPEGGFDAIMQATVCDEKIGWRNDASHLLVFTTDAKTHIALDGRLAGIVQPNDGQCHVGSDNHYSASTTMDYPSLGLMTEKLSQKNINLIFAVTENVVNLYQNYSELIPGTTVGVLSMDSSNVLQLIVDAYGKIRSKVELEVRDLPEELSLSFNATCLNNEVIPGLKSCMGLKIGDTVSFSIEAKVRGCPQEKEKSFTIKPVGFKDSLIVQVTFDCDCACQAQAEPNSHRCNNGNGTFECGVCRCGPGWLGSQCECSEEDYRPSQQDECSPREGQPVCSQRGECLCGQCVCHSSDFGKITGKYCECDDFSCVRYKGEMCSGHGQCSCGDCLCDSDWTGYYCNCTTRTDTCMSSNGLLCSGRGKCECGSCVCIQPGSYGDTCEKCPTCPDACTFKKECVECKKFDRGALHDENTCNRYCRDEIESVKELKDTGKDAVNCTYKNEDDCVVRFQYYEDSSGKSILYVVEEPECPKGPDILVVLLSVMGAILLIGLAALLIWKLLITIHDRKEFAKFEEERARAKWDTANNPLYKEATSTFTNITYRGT
Sequence (P08514 32-887 limits assumed): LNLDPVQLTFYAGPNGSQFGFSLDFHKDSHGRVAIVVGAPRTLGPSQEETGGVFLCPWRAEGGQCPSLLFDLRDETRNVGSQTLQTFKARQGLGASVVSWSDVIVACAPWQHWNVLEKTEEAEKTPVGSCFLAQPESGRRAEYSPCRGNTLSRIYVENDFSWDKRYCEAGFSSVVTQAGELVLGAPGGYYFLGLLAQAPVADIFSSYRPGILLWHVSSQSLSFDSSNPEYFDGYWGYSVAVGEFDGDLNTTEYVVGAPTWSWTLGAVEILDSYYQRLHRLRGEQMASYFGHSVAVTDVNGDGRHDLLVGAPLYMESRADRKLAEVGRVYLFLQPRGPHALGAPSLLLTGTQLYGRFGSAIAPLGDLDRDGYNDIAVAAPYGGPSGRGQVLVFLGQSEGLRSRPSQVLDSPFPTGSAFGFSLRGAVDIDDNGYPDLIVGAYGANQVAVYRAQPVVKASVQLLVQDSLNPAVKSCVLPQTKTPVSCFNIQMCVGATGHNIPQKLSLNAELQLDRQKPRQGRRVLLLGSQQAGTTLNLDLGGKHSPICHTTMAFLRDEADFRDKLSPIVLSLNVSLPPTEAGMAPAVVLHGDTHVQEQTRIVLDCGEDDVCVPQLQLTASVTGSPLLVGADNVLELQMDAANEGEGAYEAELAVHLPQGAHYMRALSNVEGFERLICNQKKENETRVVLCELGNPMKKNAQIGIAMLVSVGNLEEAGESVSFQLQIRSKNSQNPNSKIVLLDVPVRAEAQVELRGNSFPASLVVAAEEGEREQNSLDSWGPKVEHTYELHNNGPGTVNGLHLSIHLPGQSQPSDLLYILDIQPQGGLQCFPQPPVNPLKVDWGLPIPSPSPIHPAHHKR
Sequence (P08514 891-1039 limits assumed): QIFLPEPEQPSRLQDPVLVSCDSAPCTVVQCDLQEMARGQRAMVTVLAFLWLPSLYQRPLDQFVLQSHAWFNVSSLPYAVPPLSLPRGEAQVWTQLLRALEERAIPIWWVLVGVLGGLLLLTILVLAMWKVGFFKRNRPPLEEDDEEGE
assay-overview: The compound was tested for the inhibition of fibrinogen receptor
Assay type: protein-complex assay
*1 amine or outer side, *2 acyl side, *3 side chain or, on linkers, in order; H or OH if unused. Where a SMILES comes first, the peptide text is derived from it. Bridges are numbered along the chain shown (N, C = ends). [ ]: non-standard residue; d: D form. Cys(O)(CH2CO) = O=C([C@H](C[S+]([O-])CC(=O)[*:3])N[*:1])[*:2]
Decision: IC50 beneath 10 nM gives Yes; IC50 meeting or exceeding 10 nM gives No.

Example entries begin here.
input: hey, is IC50 for CC(C)[C@@H]1NC(=O)CSC[C@@H](C(=O)O)NC(=O)[C@H](CC(=O)O)NC(=O)CNC(=O)[C@H](CCCN=C(N)N)NC1=O lower than 10 nM or not?
output: Yes

input: Here's an entry: C[C@@H](O)[C@@H]1NC(=O)CSC[C@@H](C(=O)O)NC(=O)[C@H](CC(=O)O)NC(=O)CNC(=O)[C@H](CCCN=C(N)N)NC1=O . Is its IC50 below 10 nM?
output: Yes

input: hey, is IC50 for N=C(N)NCCC[C@@H]1NC(=O)[C@H](CC(N)=O)NC(=O)C[S+]([O-])C[C@@H](C(=O)O)NC(=O)[C@H](CC(=O)O)NC(=O)CNC1=O (stereo in doubt; 67B) lower than 10 nM or not?
output: Yes

input: Lab note: confirm whether the reported IC50 for this compound is below 10 nM, equality not counting. compound: CC[C@@H](C)[C@H]1NC(=O)CSC[C@@H](C(=O)O)NC(=O)[C@H](CC(=O)O)NC(=O)CNC(=O)[C@H](CCCN=C(N)N)NC1=O
output: No

Next:
input: Hello, is IC50 of the following compound strictly smaller than 10 nM? N=C(N)NCCC[C@@H]1NC(=O)[C@H](CCC(=O)O)NC(=O)CSC[C@@H](C(=O)O)NC(=O)[C@H](CC(=O)O)NC(=O)CNC1=O
output: No

input: Criterion: IC50 strictly below 10 nM. Is it met by N=C(N)NCCC[C@@H]1NC(=O)CCNC(=O)CSC[C@@H](C(=O)O)NC(=O)[C@H](CC(=O)O)NC(=O)CNC1=O ?
output: No

input: Does the reported IC50 of N=C(N)NCCC[C@@H]1NC(=O)[C@@H](Cc2ccc(O)cc2)NC(=O)C[S+]([O-])C[C@@H](C(=O)O)NC(=O)[C@H](CC(=O)O)NC(=O)CNC1=O (stereo in doubt; 69B) stay below 10 nM?
output: No

input: Problem: For the compound N=C(N)NCCC[C@@H]1NC(=O)[C@H](Cc2ccc(O)cc2)NC(=O)C[S+]([O-])C[C@@H](C(N)=O)NC(=O)[C@H](CC(=O)O)NC(=O)CNC1=O (some centres not stated) (YRGD[Cys(O)(CH2CO)]-NH2; lactam N-5) , is IC50 under 10 nM?
output: Yes

input: For N=C(N)NCCC[C@@H]1NC(=O)[C@H](CCC(N)=O)NC(=O)CSC[C@@H](C(=O)O)NC(=O)[C@H](CC(=O)O)NC(=O)CNC1=O , is the recorded IC50 below the cut-off of 10 nM?
output: No

input: Bench note: check whether C[C@H](O)[C@H]1NC(=O)CSC[C@@H](C(=O)O)NC(=O)[C@H](CC(=O)O)NC(=O)CNC(=O)[C@H](CCCN=C(N)N)NC1=O shows IC50 below 10 nM
output: No

input: Lab note: IC50 threshold 10 nM. Does this compound come in strictly under it? N=C(N)NCCC[C@@H]1NC(=O)[C@H](CC(=O)O)NC(=O)C[S+]([O-])C[C@@H](C(=O)O)NC(=O)[C@H](CC(=O)O)NC(=O)CNC1=O (some centres not stated) (DRGD[Cys(O)(CH2CO)]-OH; lactam N-5)
output: Yes

input: State whether 10 nM exceeds IC50 recorded for C[C@@H]1NC(=O)CSC[C@@H](C(=O)O)NC(=O)[C@H](CC(=O)O)NC(=O)CNC(=O)[C@H](CCCNC(=N)N)NC1=O ({CH2CO}-ARGDC-OH; thioether N-5) .
output: Yes
